Here the recorded GI50 is given for each entry.
# Test system: XF498
# Experiment: NCI tumour cell line growth inhibition, 48 h
The source made the active and inactive calls. Rule as the data show it: active = GI50 up to about 1.1 µM and inactive = higher.
Assay readout: GI50

Cc1ccc(Nc2nc(C)c(C(/C=C/c3ccc4c(c3)OCO4)=N/Nc3ccc([N+](=O)[O-])cc3[N+](=O)[O-])s2)c([N+](=O)[O-])c1	22.1 µM (inactive)
COc1cc2c(cc1O)C(C)Cc1cc3c(cc1N(C)CC2)OCO3 (stereo unspecified)	7.19 µM (inactive)
NC(=O)C(=O)C1C(=O)N(c2ccccc2)N=C1N (stereo unspecified)	> 100 µM (inactive)
CN(C)CC1(C)CC/C(=C\c2ccc3c(c2)OCO3)C1=O (stereo unspecified)	> 100 µM (inactive)
Cc1cn(C2CC(N(C)C)C(CO)O2)c(=O)[nH]c1=O (stereo unspecified)	> 100 µM (inactive)
Clc1ccc2c(c1)-c1c3c(nn1-c1ccccc1)-c1ccccc1SC3O2 (stereo unspecified)	> 100 µM (inactive)
